# STUDY SYSTEM: S100B (Homo sapiens, UniProt P04271)
# Construct: made in house; host or cells: Escherichia coli BL21(DE3)
# Sequence (P04271 whole entry): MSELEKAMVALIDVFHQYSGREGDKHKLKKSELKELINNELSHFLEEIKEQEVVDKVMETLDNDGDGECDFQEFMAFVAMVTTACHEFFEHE
# ASSAY REMARKS: Competition pull-down with native ligand RSK1 (689–735)
# Format: binding
# STATED CONDITIONS: H14 library; competitor peptide 200 µM; read-out: Surface mapping KD (apparent), competition
Would you kindly list pKd for each of these compounds?
Give bare numbers, as −log10 of the molar value.

Look over these answered cases.
>>> test_value("NC(=O)[C@H]1CCCC[C@@H]1NC(=O)C[C@H](Cc1ccccc1)NC(=O)[C@H]1CCCC[C@@H]1NC(=O)[C@H]1CCCC[C@@H]1NC(=O)C[C@H](Cc1c[nH]c2ccccc12)NC(=O)[C@H]1CCCC[C@@H]1N")
3.75
>>> test_value("CC[C@H](C)[C@@H](CC(=O)N[C@H]1CCCC[C@@H]1C(=O)N[C@H]1CCCC[C@@H]1C(=O)N[C@@H](CO)CC(=O)N[C@H]1CCCC[C@@H]1C(N)=O)NC(=O)[C@H]1CCCC[C@@H]1N")
3.34
>>> test_value("NC(=O)CC[C@@H](CC(=O)N[C@H]1CCCC[C@@H]1C(N)=O)NC(=O)[C@H]1CCCC[C@@H]1NC(=O)[C@H]1CCCC[C@@H]1NC(=O)C[C@H](CO)NC(=O)[C@H]1CCCC[C@@H]1N")
3.35
>>> test_value("CC(C)[C@@H](CC(=O)N[C@H]1CCCC[C@@H]1C(=O)N[C@H]1CCCC[C@@H]1C(=O)N[C@H](CC(=O)N[C@H]1CCCC[C@@H]1C(N)=O)Cc1c[nH]c2ccccc12)NC(=O)[C@H]1CCCC[C@@H]1N")
4.22
>>> test_value("CC(C)C[C@@H](CC(=O)N[C@H]1CCCC[C@@H]1C(N)=O)NC(=O)[C@H]1CCCC[C@@H]1NC(=O)[C@H]1CCCC[C@@H]1NC(=O)C[C@H](CC(C)C)NC(=O)[C@H]1CCCC[C@@H]1N")
3.83

Dear colleague, could you send me pKd for each of the items below? Thanks.
1. NC(=O)[C@H]1CCCC[C@@H]1NC(=O)C[C@H](Cc1ccccc1)NC(=O)[C@H]1CCCC[C@@H]1NC(=O)[C@H]1CCCC[C@@H]1NC(=O)C[C@H](Cc1ccccc1)NC(=O)[C@H]1CCCC[C@@H]1N
2. CC[C@H](C)[C@@H](CC(=O)N[C@H]1CCCC[C@@H]1C(=O)N[C@H]1CCCC[C@@H]1C(=O)N[C@H](CC(=O)N[C@H]1CCCC[C@@H]1C(N)=O)CC(C)C)NC(=O)[C@H]1CCCC[C@@H]1N
3. CC(C)C[C@@H](CC(=O)N[C@H]1CCCC[C@@H]1C(=O)N[C@H]1CCCC[C@@H]1C(=O)N[C@@H](CO)CC(=O)N[C@H]1CCCC[C@@H]1C(N)=O)NC(=O)[C@H]1CCCC[C@@H]1N
4. NC(=O)CC[C@@H](CC(=O)N[C@H]1CCCC[C@@H]1C(N)=O)NC(=O)[C@H]1CCCC[C@@H]1NC(=O)[C@H]1CCCC[C@@H]1NC(=O)C[C@H](CC(N)=O)NC(=O)[C@H]1CCCC[C@@H]1N

[3.74, 3.83, 3.43, 3.32]
